Hi there, I'd appreciate the recorded pIC50 for every entry that follows.
target: HLA-B*07:02; test: IEDB peptide-MHC binding, purified MHC/competitive/fluorescence; bounds were set here for any values at or beyond the usual limits of such assays; settings: source organism: Zaire ebolavirus
pIC50: −log10 of the molar value.

Here is how some sequences turned out for pIC50.
| residue-string | tgt | pIC50 |
| --- | --- | --- |
| IPYFGPAAE | HLA-B*07:02 | ≤ 3.87 |
| KPGPDNSTH | HLA-B*07:02 | ≤ 3.72 |

The following sequences each have a reported value; give each one's pIC50.
1. TPTVAPPAP
2. AAPDGIRGF
3. LPKTSGHYD

≤ 3.84
4.92
≤ 3.74

* * *

target: HLA-B*57:01; assay: IEDB peptide-MHC binding, purified MHC/direct/fluorescence; filed as Kd, often an IC50 or EC50 that approximates it; bounds were set here for any values at or beyond the usual limits of such assays; conditions: source organism: Vibrio cholerae
endpoint-label: Kd

Which Kd reading was recorded for the sequence EVNAHIHTM ?
≥ 20 µM

* * *

Hi there, I'd appreciate the recorded Kd for every entry that follows.
target: HLA-B*40:02; assay: IEDB peptide-MHC binding, purified MHC/competitive/radioactivity; filed as Kd, often an IC50 or EC50 that approximates it; bounds were set here for any values at or beyond the usual limits of such assays; settings: source organism: SARS coronavirus Tor2
One number for each entry, in nM.

| residue-string | tgt | unit-spec | readout-value |
| --- | --- | --- | --- |
| AEVEWKFYDA | HLA-B*40:02 | nM | 4690 |

The following sequences each have a reported value; give each one's Kd.
1. IEELFYSYA
2. QEAYYRARAG
3. HEFVDEFYAY

1. 3060
2. 963
3. 331

* * *

biological target: HLA-A*69:01; experiment: IEDB peptide-MHC binding, purified MHC/competitive/fluorescence; filed as Kd, often an IC50 or EC50 that approximates it; bounds were set here for any values at or beyond the usual limits of such assays; conditions: source organism: Orthohantavirus sinnombreense
pKd: −log10 of the molar value.
endpoint-label: pKd

Record HTVGLGQGY : what is its pKd with HLA-A*69:01?
≤ 4.70

* * *

biological target: HLA-A*30:01; assay: IEDB peptide-MHC binding, purified MHC/competitive/fluorescence; filed as Kd, often an IC50 or EC50 that approximates it; bounds were set here for any values at or beyond the usual limits of such assays; conditions: source organism: Yersinia pestis CO92
pKd: −log10 of the molar value.
endpoint-label: pKd

Which pKd reading was recorded for the sequence QQRPDLILV ?
≤ 5.30

* * *

molecular target: HLA-B*53:01; assay: IEDB peptide-MHC binding, purified MHC/competitive/radioactivity; filed as Kd, often an IC50 or EC50 that approximates it; bounds were set here for any values at or beyond the usual limits of such assays; details: source organism: Mammarenavirus guanaritoense
endpoint-label: Kd

Which Kd reading was recorded for the sequence LPNDRVLDI ?
258 nM

* * *

target: HLA-A*02:06; assay: IEDB peptide-MHC binding, purified MHC/competitive/radioactivity; filed as Kd, often an IC50 or EC50 that approximates it; bounds were set here for any values at or beyond the usual limits of such assays; details: source organism: Variola major virus
endpoint-label: pKd
Answers are plain numbers, as −log10 of the molar value.

Which pKd reading was recorded for the sequence NLDDVYSYI ?
7.04

* * *

molecular target: HLA-B*46:01; experiment: IEDB peptide-MHC binding, purified MHC/direct/fluorescence; filed as Kd, often an IC50 or EC50 that approximates it; bounds were set here for any values at or beyond the usual limits of such assays; settings: source organism: Mammarenavirus lassaense
endpoint-label: Kd

Which Kd reading was recorded for the sequence LYQPSSGCY ?
≥ 20 µM

* * *

target: HLA-A*30:01; experiment: IEDB peptide-MHC binding, purified MHC/direct/fluorescence; filed as Kd, often an IC50 or EC50 that approximates it; bounds were set here for any values at or beyond the usual limits of such assays; details: source organism: Pseudomonas aeruginosa
endpoint-label: Kd (nM)
Numbers only, in nM.

Which Kd reading was recorded for the sequence RDYRTISPR ?
2010

* * *

biological target: HLA-A*30:02; assay: IEDB peptide-MHC binding, purified MHC/competitive/radioactivity; filed as Kd, often an IC50 or EC50 that approximates it; bounds were set here for any values at or beyond the usual limits of such assays; conditions: source organism: Dengue virus 3 Martinique/1243/1999
endpoint-label: Kd (µM)
Answers are plain numbers, in µM.

Which Kd reading was recorded for the sequence ILALFLAHY ?
9.83

* * *

biological target: HLA-A*66:01; assay: IEDB peptide-MHC binding, purified MHC/competitive/fluorescence; filed as Kd, often an IC50 or EC50 that approximates it; bounds were set here for any values at or beyond the usual limits of such assays; conditions: source organism: Cryptosporidium parvum Iowa II
endpoint-label: Kd

Which Kd reading was recorded for the sequence FTWQHNYYL ?
≥ 5 µM

* * *

target: HLA-B*44:02; assay: IEDB peptide-MHC binding, purified MHC/direct/fluorescence; filed as Kd, often an IC50 or EC50 that approximates it; bounds were set here for any values at or beyond the usual limits of such assays; conditions: source organism: Vibrio vulnificus
pKd: −log10 of the molar value.
endpoint-label: pKd

Which pKd reading was recorded for the sequence QSDIAGAIH ?
≤ 4.70

* * *

molecular target: HLA-A*31:01; test: IEDB peptide-MHC binding, purified MHC/direct/fluorescence; filed as Kd, often an IC50 or EC50 that approximates it; bounds were set here for any values at or beyond the usual limits of such assays; conditions: source organism: Haemophilus influenzae
endpoint-label: pKd
Answers are plain numbers, as −log10 of the molar value.

Which pKd reading was recorded for the sequence RMGVKSQLL ?
5.68

* * *

molecular target: HLA-C*05:01; experiment: IEDB peptide-MHC binding, purified MHC/direct/fluorescence; filed as Kd, often an IC50 or EC50 that approximates it; bounds were set here for any values at or beyond the usual limits of such assays; conditions: source organism: Salmonella enterica subsp. enterica serovar Typhi str. CT18
endpoint-label: Kd

Which Kd reading was recorded for the sequence NTDEIPELI ?
114 nM

* * *

target: HLA-B*15:02; assay: IEDB peptide-MHC binding, purified MHC/competitive/fluorescence; filed as Kd, often an IC50 or EC50 that approximates it; bounds were set here for any values at or beyond the usual limits of such assays; details: source organism: Burkholderia pseudomallei K96243
endpoint-label: Kd (nM)
Numbers only, in nM.

Record MQLPQGGAF : what is its Kd with HLA-B*15:02?
23.5

* * *

molecular target: HLA-B*40:01; test: IEDB peptide-MHC binding, purified MHC/direct/fluorescence; filed as Kd, often an IC50 or EC50 that approximates it; bounds were set here for any values at or beyond the usual limits of such assays; settings: source organism: Escherichia coli
endpoint-label: Kd

Which Kd reading was recorded for the sequence WCRVGRGTI ?
≥ 20 µM

* * *

target: HLA-B*08:01; assay: IEDB peptide-MHC binding, purified MHC/competitive/radioactivity; filed as Kd, often an IC50 or EC50 that approximates it; bounds were set here for any values at or beyond the usual limits of such assays; conditions: source organism: Dengue virus 2 Jamaica/1409/1983
Hi there, I'd appreciate the recorded Kd for every entry that follows.
Answer as a quantity: numeral, then unit.

Here is how some sequences turned out for Kd.
| residue-string | tgt | Kd |
| --- | --- | --- |
| LLILCVTQVL | HLA-B*08:01 | 979 nM |
| LMWKQITPEL | HLA-B*08:01 | 1230 nM |
| RKNGKKVIQL | HLA-B*08:01 | 161 nM |

From here, focus on the item given below.
Which Kd reading was recorded for the sequence LMRRGDLPV ?
17.8 nM

* * *

target: HLA-B*54:01; experiment: IEDB peptide-MHC binding, purified MHC/competitive/radioactivity; filed as Kd, often an IC50 or EC50 that approximates it; bounds were set here for any values at or beyond the usual limits of such assays; settings: source organism: SARS coronavirus Tor2
endpoint-label: Kd (µM)
One number for each entry, in µM.

Here is how some sequences turned out for Kd.
| residue-string | tgt | readout-value |
| --- | --- | --- |
| GPLVRKIFV | HLA-B*54:01 | 18 |
| WPWYVWLGFI | HLA-B*54:01 | 15.5 |

The following sequences each have a reported value; give each one's Kd.
1. RPDTRYVLM
2. GPKVKYLYF

1.58
10.4

* * *

Hi there, I'd appreciate the recorded pKd for every entry that follows.
target: HLA-A*03:01; experiment: IEDB peptide-MHC binding, purified MHC/competitive/radioactivity; filed as Kd, often an IC50 or EC50 that approximates it; bounds were set here for any values at or beyond the usual limits of such assays; conditions: source organism: Mammarenavirus juninense
pKd: −log10 of the molar value.

| residue-string | pKd |
| --- | --- |
| PLLCTLNKSH | ≤ 4.15 |
| PAAEFRRVAH | ≤ 4.15 |

Record MTSWLDFSH : what is its pKd with HLA-A*03:01?
6.26
